Species on record: Mus musculus
Test Summary: Ability to block convulsions in the maximal electroshock test (MES) in mice
Type: functional
Quantity Name: ED50 (mg/kg)
Output spec: scalar in mg/kg, unitless text.

In the examples that follow, each entry is paired with its recorded ED50.
CO[C@@H](C)CN1CCC2(C)c3cccc(O)c3C[C@@H]1C2(C)C :: 1
COC(C)CN1CCC2(C)c3cc(O)ccc3C[C@@H]1C2(C)C (some centres undefined) :: 0.1
COC(C)CN1CCC2(C)c3ccc(O)cc3C[C@@H]1C2(C)C (some centres undefined) :: 0.7

Alright, here's another molecule for you.
For reference, reported ED50 for `CO[C@H](C)CN1CCC2(C)c3cccc(O)c3C[C@@H]1C2(C)C` stands at 0.8

Source: ChEMBL document CHEMBL1135973
